system: ACHN renal; assay: NCI tumour cell line growth inhibition, 48 h
TGI: recorded values

Examples with their reported TGI follow.
COc1ccc(-c2c3c(nc4nc(SCC(=O)c5ccc(Br)cc5)nc(N)c24)CCCC3)cc1OC	> 100 µM
[CH3][Hg]/[N]=C(/N)NC#N	26.4 µM
CC(=O)O[C@@H]1CC[C@@]2(C)C(=O)C34C[C@@]5(C)C([C@@H](C)CCCC(C)C)CCC5(C)[C@](O)(O3)C(=O)[C@H]4C2C1(C)C (some centres undefined)	27 µM

Shifting focus to the compound that follows.
Supply recorded TGI for O=C(CN1CCN(C(=O)c2ccco2)CC1)Nc1ccc(Cl)cc1C(=O)c1ccccc1Cl here.
43.7 µM

###

Listed here are compounds together with their documented TGI.
tested on: MOLT-4 leukemia; test: NCI tumour cell line growth inhibition, 48 h
Output spec: scalar in µM, unitless text.

Reference set (2 entries):
CCCCOC(=O)c1c(C)[nH]c(/C=C2\N=C(c3ccc[nH]3)C=C2OC)c1C	9.85
COc1ccc2nc3cc(Cl)ccc3c(NCCCCCC(=O)NC(COc3ccc4ccc5cccnc5c4n3)COc3ccc4ccc5cccnc5c4n3)c2c1	12.7

# context switch: different compound, same TGI
Supply recorded TGI for Cc1ccc(NC(=O)CC2SC(=Nc3ccc(Cl)cc3)NC2=O)cc1C (stereo not given) here.
5.28

###

test system: OVCAR-5 ovarian; experiment: NCI tumour cell line growth inhibition, 48 h
endpointLabel: TGI

Observe how each entry below is paired with its result.
C=CCOCn1cnc2c(=O)[nH]c(N)nc21	> 100 µM
O=C(OCC(OC(=O)c1ccccc1)C1CC(C2(O)CCCCC2)C(=O)O1)c1ccccc1 (stereo unspecified)	> 25 µM
CC(=O)OCC1OC(O[C@H]2C=C[C@@H](C(=O)OCc3ccccc3)n3c(=O)n(-c4ccccc4)c(=O)n32)C(OC(C)=O)C(OC(C)=O)C1OC(C)=O (stereo partly specified)	4.75 µM
Cc1cccc(-c2nc(-c3cnccn3)n(Cc3ccccc3)n2)c1	> 100 µM
C=C(C)CCC(O)[C@](C)(O)[C@H]1[C@H](O)C[C@@]2(C)[C@@H]3CCc4c(cc(OC5OC(CO)C(O)C(O)C5O)c(O)c4C)C3(C)C(=O)C[C@]12C (stereo partly specified)	> 100 µM

Report TGI, nothing else, for this molecule: Cn1c(=O)cc(Nc2ccc(N)cc2)[nH]c1=O
> 100 µM

###

test system: EKVX NSCLC; assay: NCI tumour cell line growth inhibition, 48 h; in the data active = GI50 below about 0.43 µM; inactive = the rest
Answer with one of the outcomes given here: active, inactive

CN(C)CCCCNc1ccc(NCCCCN(C)C)c2c1C(=O)c1c(O)ccc(O)c1C2=O	inactive

Just curious, what result did COc1ccc(/C=C/C(=O)/C=C(O)/C=C/c2ccc(OC)c(OC)c2)cc1OC get here?
inactive

How did this test come out for Nc1cc(N)c2nc(NCCc3ccc(Cl)c(Cl)c3)cnc2c1 ?
inactive

So what was the verdict on CCN(CC)CC(O)c1cc(-c2ccc(Cl)cc2)nc2c(C)c(Cl)ccc12 (stereo unspecified) in this test?
inactive

What was the test verdict on CCCCOC(=O)c1c(C)[nH]c(/C=C2\N=C(c3ccc[nH]3)C=C2OC)c1C ?
inactive

Write down the call the test reported for this molecule. Item: COCCn1c2c([n+](Cc3cnccn3)c1C)C(=O)c1ccccc1C2=O
active

###

The entries below are paired with their reported TGI.
test system: RPMI-8226 leukemia; test: NCI tumour cell line growth inhibition, 48 h
Respond with the bare value in µM.

CCC(C)C1NC(=O)C(NC(=O)C(CC(C)C)N(C)C(=O)[C@@H]2CC(O)CN2C(=O)[C@H](C)O)C(C)OC(=O)[C@H](Cc2ccc(OC)cc2)N(C)C(=O)[C@@H]2CCCN2C(=O)[C@H](CC(C)C)NC(=O)C(C)C(=O)[C@H](C(C)C)OC(=O)CC1O (stereo not given in full)	1.77

In the following, a different compound is considered.
Using known records, supply TGI for COc1ncc(-c2ccc3nccc(C#CCCCCC(=O)NO)c3c2)cc1NS(=O)(=O)c1ccc(F)cc1F
4.79
